The origin of these recorded values is PubChem BioAssay (NCI).

test system: SF-268 CNS; assay: NCI-60 one-dose screen, 48 h (100 = growth as untreated, 0 = no growth, -100 = all killed); conditions: 10 µM unless noted
Compounds without any hit were thinned out: in the full panel of roughly 83,000, 20% have a hit.
# Lookup of reported growth keyed by entry
Just the number in %, nothing appended.

molecule | assay.system | growth, %
COC(=O)[C@@H](C)C[C@H](Cc1ccccc1)NC(=O)c1csc([C@@H](C[C@H](C(C)C)N(C)C(=O)[C@@H](NC(=O)CN(C)C)C2CC2)OC(C)=O)n1 | SF-268 CNS | 33.3
C[C@]12C[C@@H](CO)[C@H](O)C[C@@H]1CC[C@@H]1[C@@H]2CC[C@]2(C)[C@@H](O)CC[C@@H]12 | SF-268 CNS | 103
COc1cc(C=Nc2cccc(C(=O)O)c2)ccc1N(CCCl)CCCl | SF-268 CNS | 113

Sample `CCCCCCCOC(C(=O)OCCN(CC)CC)(c1ccccc1)c1ccccc1` ; growth observed: 87.9

Sample `COc1ccc(/C=C\c2cc(OC)c(OC)c(OC)c2)c(NS(=O)(=O)c2ccc(F)cc2)c1O` ; growth observed: 15.1

Sample `Nc1ccc(Cl)cc1` ; growth observed: 104
